B1: library; a variant is named by its letters at N, in order (parent)
chain: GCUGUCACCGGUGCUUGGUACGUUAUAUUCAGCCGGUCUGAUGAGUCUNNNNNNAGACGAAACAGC

Variants of: B1
Assay: FACS-Seq fitted mean relative fluorescence mCherry/BFP without ligand (log10 relative fluorescence); HEK293T overexpressing SLC46A1; higher = higher reporter protein expression
Settings: without (6R,S)-folinic acid; ligand present: no
So I've got a bunch of variants here, and I need their FACS-Seq fitted mean (log10) values.

AAUGAG; 0.455

Could I get FACS-Seq fitted mean (log10) for every one of these entries?
1. AUUUAC
2. GCAAGG
3. AAUAGG
4. UGGUAC
5. GUGUAG
6. UUUGAG

Outgoing:
0.138
0.437
0.164
-0.0637
0.435
-0.104

Could I get FACS-Seq fitted mean (log10) for every one of these entries?
1. UGGACA
2. GAGCGA
3. ACUUAA
4. GAUGAC

Outgoing:
0.24
0.146
-0.0941
0.579
